Test: in vitro
Conditions: human, primary hepatocytes
Description: Cytotoxicity against human primary hepatocytes assessed as cell viability at 100 uM measured after 2 hrs by trypan blue assay relative to control
MEASURED PARAMETER: viability at 2 h, 100 µM
Report field: quantity (unit follows the number).

Ask: Complete the entry with viability at 2 h, 100 µM for COc1cccc(C2c3ccc4cccnc4c3Oc3nc4c(c(N)c32)CCCC4)c1 (stereo unspecified)
Reply: 89%

###

Experiment: in vitro
Conditions: human, primary hepatocytes
Description: Cytotoxicity against human primary hepatocytes assessed as cell viability at 3 uM measured after 2 hrs by trypan blue assay relative to control
MEASURED PARAMETER: viability at 2 h, 3 µM (%)
Answers are plain numbers, in %.

Ask: State its viability at 2 h, 3 µM for this compound: COc1cccc(C2c3ccc4cccnc4c3Oc3nc4c(c(N)c32)CCCC4)c1 (stereo unspecified)
Reply: 83

###

Test: in vitro
Conditions: human, primary hepatocytes
Description: Cytotoxicity against human primary hepatocytes assessed as cell viability at 1 uM measured after 2 hrs by trypan blue assay relative to control
MEASURED PARAMETER: viability at 2 h, 1 µM (%)
Give bare numbers, in %.

Ask: Dear colleague, please send me the reported viability at 2 h, 1 µM for COc1cccc(C2c3ccc4cccnc4c3Oc3nc4c(c(N)c32)CCCC4)c1 (stereo unspecified) when you can.
Reply: 84

###

Assay: in vitro
Details: human, primary hepatocytes
Description: Cytotoxicity against human primary hepatocytes assessed as cell viability at 0.1 uM measured after 2 hrs by trypan blue assay relative to control
MEASURED PARAMETER: viability at 2 h, 0.1 µM (%)
One number for each entry, in %.

Ask: Look up and report measured viability at 2 h, 0.1 µM for this entry: COc1cccc(C2c3ccc4cccnc4c3Oc3nc4c(c(N)c32)CCCC4)c1 (stereo unspecified)
Reply: 89

###

Experiment: in vitro
Details: human, primary hepatocytes
Description: Cytotoxicity against human primary hepatocytes assessed as cell viability at 10 uM measured after 2 hrs by trypan blue assay relative to control
MEASURED PARAMETER: viability at 2 h, 10 µM (%)
Answers are plain numbers, in %.

Ask: Report measured viability at 2 h, 10 µM; entry is COc1cccc(C2c3ccc4cccnc4c3Oc3nc4c(c(N)c32)CCCC4)c1 (stereo unspecified)
Reply: 89

###

Biological target: Acetylcholinesterase (Electrophorus electricus)
Sequence (O42275 whole entry): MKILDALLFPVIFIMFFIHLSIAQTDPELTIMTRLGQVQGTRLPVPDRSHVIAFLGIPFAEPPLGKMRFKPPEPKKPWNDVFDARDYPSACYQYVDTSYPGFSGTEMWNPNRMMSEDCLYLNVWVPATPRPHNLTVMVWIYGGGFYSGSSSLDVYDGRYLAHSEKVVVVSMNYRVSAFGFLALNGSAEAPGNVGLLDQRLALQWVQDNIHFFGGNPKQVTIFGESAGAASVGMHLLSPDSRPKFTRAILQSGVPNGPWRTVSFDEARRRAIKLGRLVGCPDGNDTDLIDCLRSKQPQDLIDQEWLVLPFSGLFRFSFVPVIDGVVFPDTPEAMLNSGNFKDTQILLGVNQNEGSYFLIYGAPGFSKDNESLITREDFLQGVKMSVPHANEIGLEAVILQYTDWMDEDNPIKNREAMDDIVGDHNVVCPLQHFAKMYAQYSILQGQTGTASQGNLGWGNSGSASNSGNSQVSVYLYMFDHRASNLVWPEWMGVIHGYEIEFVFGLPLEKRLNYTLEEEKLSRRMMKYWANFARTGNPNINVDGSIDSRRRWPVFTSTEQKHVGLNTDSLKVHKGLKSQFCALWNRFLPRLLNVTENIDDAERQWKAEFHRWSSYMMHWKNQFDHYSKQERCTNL
MEASURED PARAMETER: pIC50
One number for each entry, as −log10 of the molar value.

Field: example entries. Status: answers known.
| COMPOUND | MEASURED TARGET | pIC50 |
| --- | --- | --- |
| Nc1c2c(nc3c1C(c1ccccc1F)c1ccc4cccnc4c1O3)CCCC2 (configuration not stated) | Acetylcholinesterase (Electrophorus electricus) | 6.96 |
| Nc1c2c(nc3c1C(c1cccnc1Br)c1ccc4cccnc4c1O3)CCCC2 (configuration not stated) | Acetylcholinesterase (Electrophorus electricus) | 6.72 |
| Nc1c2c(nc3c1C(c1c(Cl)cccc1Cl)c1ccc4cccnc4c1O3)CCCC2 (configuration not stated) | Acetylcholinesterase (Electrophorus electricus) | 7.00 |

For each of the items listed, what is its pIC50?
1. COc1ccccc1C1c2ccc3cccnc3c2Oc2nc3c(c(N)c21)CCCC3 (configuration not stated)
2. Nc1c2c(nc3c1C(c1ccccc1Br)c1ccc4cccnc4c1O3)CCCC2 (configuration not stated)
3. COc1cccc(C2c3ccc4cccnc4c3Oc3nc4c(c(N)c32)CCCC4)c1 (configuration not stated)
4. Nc1c2c(nc3c1C(c1cccc(F)c1)c1ccc4cccnc4c1O3)CCCC2 (configuration not stated)

Reply:
[7.10, 6.85, 7.40, 7.05]

Answer for every listed entry: what is its pIC50? The entries follow.
1. Nc1c2c(nc3c1C(c1ccncc1)c1ccc4cccnc4c1O3)CCCC2 (configuration not stated)
2. COc1ccc(C2c3ccc4cccnc4c3Oc3nc4c(c(N)c32)CCCC4)cc1 (configuration not stated)
3. Nc1c2c(nc3c1C(c1ccccc1)c1ccc4cccnc4c1O3)CCCC2 (configuration not stated)
4. Nc1c2c(nc3c1C(c1ccc([N+](=O)[O-])cc1)c1ccc4cccnc4c1O3)CCCC2 (configuration not stated)
5. Cc1ccc(C2c3ccc4cccnc4c3Oc3nc4c(c(N)c32)CCCC4)cc1 (configuration not stated)

Reply:
6.33
7.40
7.22
6.62
7.40
